Ref: ChEMBL document CHEMBL1134576

experiment: Percent oral bioavailability after po dose; type: ADME, organism-based; details: eutheria, in vivo
reported property: bioavailability (%)
Reply with just the number (in %).

input: Record request: bioavailability value, item CC(=O)N1CCN(C(=O)/C=C/c2ccc(Sc3ccccc3C(C)C)c([N+](=O)[O-])c2)CC1 [A-286982]
output: 0

###

assay: Mean residence time after po dose in rat; assay type: ADME, organism-based; details: in vivo
reported property: MRT (h)
Reply with just the number (in h).

Examples with their reported MRT follow.
> print(dat)
                                   compound  reported.property  experimental.value
1  O=C(O)C1CCCN(C(=O)/C=C/c2ccc(Sc3ccc4c(c3)OCCO4)c(C(F)(F)F)c2)C1 (centres undefined)                MRT                   5
2  CC(C)c1ccccc1Sc1ccc(/C=C/C(=O)N2CCCC(C(=O)O)C2)cc1[N+](=O)[O-] (centres undefined)                MRT                11.3

input: Record request: MRT value, item O=C(O)C1CCN(C(=O)/C=C/c2ccc(Sc3ccc4c(c3)OCCO4)c(C(F)(F)F)c2)CC1
output: 6.7

input: Record request: MRT value, item CC(C)c1ccccc1Sc1ccc(/C=C/C(=O)N2CCC(C(=O)O)CC2)cc1[N+](=O)[O-]
output: 3.5

###

target: Intercellular adhesion molecule (ICAM-1), Integrin alpha-L/beta-2 (Homo sapiens, UniProt P05107+P20701); test: Ability to antagonise the Leukocyte function-associated Antigen-1/ Intracellular Adhesion molecule-1 interaction (LFA-1/ICAM-1)
Sequence (P20701 whole entry): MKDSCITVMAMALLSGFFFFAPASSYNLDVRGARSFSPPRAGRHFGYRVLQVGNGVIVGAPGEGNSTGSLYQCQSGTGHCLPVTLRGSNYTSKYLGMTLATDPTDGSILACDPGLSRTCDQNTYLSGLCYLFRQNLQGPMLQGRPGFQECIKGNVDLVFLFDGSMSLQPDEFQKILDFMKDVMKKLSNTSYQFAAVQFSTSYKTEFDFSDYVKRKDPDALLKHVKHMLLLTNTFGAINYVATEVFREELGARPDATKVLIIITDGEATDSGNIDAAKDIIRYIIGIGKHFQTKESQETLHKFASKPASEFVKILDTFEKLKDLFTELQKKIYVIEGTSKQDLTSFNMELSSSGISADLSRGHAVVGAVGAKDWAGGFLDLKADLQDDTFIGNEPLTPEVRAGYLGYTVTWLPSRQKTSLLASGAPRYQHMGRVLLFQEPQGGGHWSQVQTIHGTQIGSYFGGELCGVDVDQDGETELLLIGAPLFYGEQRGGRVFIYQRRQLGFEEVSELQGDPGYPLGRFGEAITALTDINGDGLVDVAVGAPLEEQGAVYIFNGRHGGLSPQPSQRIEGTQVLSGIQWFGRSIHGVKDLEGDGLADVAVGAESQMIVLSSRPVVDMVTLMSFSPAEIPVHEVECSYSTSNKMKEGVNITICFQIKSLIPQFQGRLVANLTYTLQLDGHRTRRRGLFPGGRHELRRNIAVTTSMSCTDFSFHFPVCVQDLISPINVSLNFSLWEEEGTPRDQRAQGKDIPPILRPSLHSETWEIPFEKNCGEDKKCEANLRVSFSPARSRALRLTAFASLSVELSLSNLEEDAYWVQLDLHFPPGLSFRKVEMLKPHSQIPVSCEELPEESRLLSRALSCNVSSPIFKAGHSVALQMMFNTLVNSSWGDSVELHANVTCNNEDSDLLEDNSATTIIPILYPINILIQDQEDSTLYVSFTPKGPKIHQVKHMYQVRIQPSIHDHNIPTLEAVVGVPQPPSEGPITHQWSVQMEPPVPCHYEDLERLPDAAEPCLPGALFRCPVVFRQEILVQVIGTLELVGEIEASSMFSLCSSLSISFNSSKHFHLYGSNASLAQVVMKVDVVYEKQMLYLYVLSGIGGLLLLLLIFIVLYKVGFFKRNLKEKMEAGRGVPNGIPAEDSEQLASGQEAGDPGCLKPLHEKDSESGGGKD
Sequence (P05362 whole entry, further chain): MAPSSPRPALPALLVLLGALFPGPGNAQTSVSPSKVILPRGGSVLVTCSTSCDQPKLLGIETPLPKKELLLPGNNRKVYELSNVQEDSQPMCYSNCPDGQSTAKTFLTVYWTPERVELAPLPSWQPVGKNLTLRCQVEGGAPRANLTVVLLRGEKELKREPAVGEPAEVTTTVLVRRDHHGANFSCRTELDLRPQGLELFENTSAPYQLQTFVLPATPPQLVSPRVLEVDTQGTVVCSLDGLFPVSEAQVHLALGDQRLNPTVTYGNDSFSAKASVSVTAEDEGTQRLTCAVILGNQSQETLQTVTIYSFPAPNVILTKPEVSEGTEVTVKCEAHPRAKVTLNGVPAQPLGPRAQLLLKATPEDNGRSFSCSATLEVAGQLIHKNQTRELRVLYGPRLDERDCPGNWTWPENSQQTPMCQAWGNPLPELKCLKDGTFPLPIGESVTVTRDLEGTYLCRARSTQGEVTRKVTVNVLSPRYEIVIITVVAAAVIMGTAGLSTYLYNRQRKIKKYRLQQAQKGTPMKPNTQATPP
Sequence (P05107 whole entry): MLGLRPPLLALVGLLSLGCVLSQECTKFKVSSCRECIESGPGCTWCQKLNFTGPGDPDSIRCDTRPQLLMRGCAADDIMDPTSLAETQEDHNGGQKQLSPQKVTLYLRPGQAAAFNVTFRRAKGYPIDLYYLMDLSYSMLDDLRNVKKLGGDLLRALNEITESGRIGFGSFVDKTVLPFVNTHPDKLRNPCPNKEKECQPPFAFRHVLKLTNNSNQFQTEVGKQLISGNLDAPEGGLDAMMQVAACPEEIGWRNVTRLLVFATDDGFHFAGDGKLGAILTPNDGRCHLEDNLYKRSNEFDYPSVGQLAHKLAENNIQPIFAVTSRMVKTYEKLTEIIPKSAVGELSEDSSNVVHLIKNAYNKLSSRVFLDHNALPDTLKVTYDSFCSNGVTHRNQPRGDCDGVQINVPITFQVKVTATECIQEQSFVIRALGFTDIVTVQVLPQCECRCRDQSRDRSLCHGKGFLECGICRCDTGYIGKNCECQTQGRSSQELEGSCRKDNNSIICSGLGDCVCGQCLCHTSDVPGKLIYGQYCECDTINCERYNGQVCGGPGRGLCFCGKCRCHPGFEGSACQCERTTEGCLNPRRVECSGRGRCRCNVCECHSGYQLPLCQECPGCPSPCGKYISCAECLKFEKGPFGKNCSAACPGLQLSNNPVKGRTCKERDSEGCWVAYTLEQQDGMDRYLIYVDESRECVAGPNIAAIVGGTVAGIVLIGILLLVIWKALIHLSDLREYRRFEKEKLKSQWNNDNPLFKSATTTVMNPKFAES
Classify: 1 when IC50 is strictly less than 80 nM; -1 when IC50 is not.

Consider the following illustrative entries.
> print(dat)
                                   compound  assigned.label
1  COC(=O)C1CNCCN1C(=O)/C=C/c1ccc(Sc2ccccc2C(C)C)c([N+](=O)[O-])c1 (stereo not drawn)              -1
2  CC(=O)N1CCN(C(=O)/C=C/c2ccc(Sc3ccccc3C(C)C)c([N+](=O)[O-])c2)CC1C(=O)O (stereo not drawn)              -1
3  CC(C)c1ccccc1Sc1ccc(/C=C/C(=O)N2CCNC(C(=O)N(C)C)C2)cc1[N+](=O)[O-] (stereo not drawn)               1
4  CC(C)c1ccccc1Sc1ccc(/C=C/C(=O)N2CCN(C)CC2)cc1[N+](=O)[O-]              -1
5  CC(C)c1ccccc1Sc1ccc(/C=C/C(=O)N2CCC(S(=O)(=O)O)CC2)cc1[N+](=O)[O-]              -1
6  O=C(O)C1CCN(C(=O)/C=C/c2ccc(Sc3ccc4c(c3)OCCO4)c(C(F)(F)F)c2)CC1               1
7  COC(=O)C1CN(C(=O)/C=C/c2ccc(Sc3ccccc3C(C)C)c([N+](=O)[O-])c2)CCN1C (stereo not drawn)               1

Turning now to a further record.
input: Dear colleague, could you confirm whether IC50 of CC(C)c1ccccc1Sc1ccc(/C=C/C(=O)N2CCCC(C(=O)O)C2)cc1[N+](=O)[O-] (stereo not drawn) falls below 80 nM? Thanks.
output: 1
